Each record here notes measured IC50.
Test system: 496974-208-R-J2-PDC complex spheroids, growth % test/control
Test details: Anticancer human tumor 496974-208-R-J2-PDC patient-derived pancreatic carcinoma cell line growth inhibition [CLK]
Reported conditions: curve of first compound; second compound 0.0316 µM
Endpoint name: IC50

Molecule: CCCS(=O)(=O)Nc1ccc(F)c(C(=O)c2c[nH]c3ncc(-c4ccc(Cl)cc4)cc23)c1F + CNC(=O)c1ccc(Nc2nc(OC3CCCC3)c3c(-c4ccc5nc(C)oc5c4)c[nH]c3n2)c(OC)c1
Study system: 496974-208-R-J2-PDC complex spheroids, growth % test/control
Recorded value: 6.39 µM
--
Molecule: COc1cccc2c1C(=O)c1c(O)c3c(c(O)c1C2=O)CC(O)(C(=O)CO)CC3OC1CC(N)C(O)C(C)O1 (stereo not given) + CN1CCN(c2cc(C(=O)Nc3cc4cc(-c5cnn(C)c5)ccc4cn3)ccn2)CC1
Study system: 496974-208-R-J2-PDC complex spheroids, growth % test/control
Recorded value: 0.12 µM
--
Molecule: Nc1ccn(C2OC(CO)C(O)C2(F)F)c(=O)n1 (stereo not given) + CNC(=O)c1ccc(Nc2nc(OC3CCCC3)c3c(-c4ccc5nc(C)oc5c4)c[nH]c3n2)c(OC)c1
Study system: 496974-208-R-J2-PDC complex spheroids, growth % test/control
Recorded value: > 10 µM
--
Molecule: O=C(c1cc(Cc2n[nH]c(=O)c3ccccc23)ccc1F)N1CCN(C(=O)C2CC2)CC1 + CN1CCN(c2cc(C(=O)Nc3cc4cc(-c5cnn(C)c5)ccc4cn3)ccn2)CC1
Study system: 496974-208-R-J2-PDC complex spheroids, growth % test/control
Recorded value: > 10 µM
--
Molecule: C=C(F)C(=O)N1CCN(c2nc(OCC3CCCN3C)nc3c2CCN(c2cccc4cccc(Cl)c24)C3)CC1CC#N (stereo not given) + CN1CCN(c2cc(C(=O)Nc3cc4cc(-c5cnn(C)c5)ccc4cn3)ccn2)CC1
Study system: 496974-208-R-J2-PDC complex spheroids, growth % test/control
Recorded value: 5.32 µM

----------
System: 496974-208-R-J2-PDC complex spheroids, growth % test/control
Test details: Anticancer human tumor 496974-208-R-J2-PDC cell line growth inhibition [CLK];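 note: spheroids exposed to the drugs for 7 days before readout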
Reported conditions: curve of first compound; second compound 10 µM

Molecule: C=C(F)C(=O)N1CCN(c2nc(OCC3CCCN3C)nc3c2CCN(c2cccc4cccc(Cl)c24)C3)CC1CC#N (stereo not given) + CN1CCN(c2cc(C(=O)Nc3cc4cc(-c5cnn(C)c5)ccc4cn3)ccn2)CC1
IC50: < 31.6 nM
//
Molecule: CCc1c2c(nc3ccc(O)cc13)-c1cc3c(c(=O)n1C2)COC(=O)[C@]3(O)CC + CNC(=O)c1ccc(Nc2nc(OC3CCCC3)c3c(-c4ccc5nc(C)oc5c4)c[nH]c3n2)c(OC)c1
IC50: < 3.16 nM
//
Molecule: CC(CO)NC(=O)c1cc(-c2ccc(Cl)cc2)nn(-c2cnn(C)c2)c1=O (stereo not given) + CN1CCN(c2cc(C(=O)Nc3cc4cc(-c5cnn(C)c5)ccc4cn3)ccn2)CC1
IC50: < 31.6 nM
//
Molecule: NC(=O)C(=Cn1cnc(-c2cc(C(F)(F)F)cc(C(F)(F)F)c2)n1)c1cncnc1 + CN1CCN(c2cc(C(=O)Nc3cc4cc(-c5cnn(C)c5)ccc4cn3)ccn2)CC1
IC50: < 9.49 nM
//
Molecule: CC(CO)NC(=O)c1cc(-c2ccc(Cl)cc2)nn(-c2cnn(C)c2)c1=O (stereo not given) + CNC(=O)c1ccc(Nc2nc(OC3CCCC3)c3c(-c4ccc5nc(C)oc5c4)c[nH]c3n2)c(OC)c1
IC50: 4140 nM

// provenance: PubChem BioAssay AID2060615
